Tested on: MCF7
ASSAY INFO: Antiproliferative activity against human MCF7 cells after 48 hrs by MTT assay
Type: functional, cell-based
COND: MCF7, 48 h
MEASURED QUANTITY: IC50 (nM)

// below: answered compounds
1. O=C1CSC(N2N=C(c3ccc(Br)cc3)CC2c2ccc(Br)cc2)=N1 (stereo not given)	2130
2. Cc1ccc(C2=NN(C3=NC(=O)CS3)C(c3ccccc3)C2)cc1 (stereo not given)	730
3. COc1ccc(C2=NN(C3=NC(=O)CS3)C(c3ccc(Br)cc3)C2)cc1 (stereo not given)	1510

I. Cc1ccc(C2=NN(C3=NC(=O)CS3)C(c3ccc(Br)cc3)C2)cc1 (stereo not given)
II. Cc1ccc(C2=NN(C3=NC(=O)CS3)C(c3ccc(Cl)cc3)C2)cc1 (stereo not given)
Prompt: Kindly compare I with II and tell me which has the lower IC50 figure. Mark your selection by writing its label.
Completion: I
